Target: GmolGOBP1 (Grapholita molesta, UniProt H9XTU5)
Test: Fluorescence competitive binding assay with probe 1-NPN, rGmolGOBP1
Procedure: Fluorescence binding assays were performed on a Hitachi (Tokyo, Japan) F-4500 fluorescence spectrophotometer with a 1 cm light path fluorimeter quartz cuvette. Both of the slit widths for excitation and emission were 10 nm. […] The probes were excited at 337 nm and emission spectra were recorded between 370 and 550 nm. […] Dissociation constants of the complex GmolGOBPs/1-NPN (K1-NPN) were calculated by a nonlinear regression binding curve, using Prism 5.0 (GraphPad Software Inc.).
Rule: measured Ki below 30 µM gets True; anything equal to or greater than 30 µM gets False.

Worked set:
compound="CC/C=C\\CCO [Cis-3-Hexen-1-ol]" target_desc="GmolGOBP1 (Grapholita molesta, UniProt H9XTU5)" qualitative_label=True
compound="CCC/C=C/C=O [(E)-2-Hexenal]" target_desc="GmolGOBP1 (Grapholita molesta, UniProt H9XTU5)" qualitative_label=True
compound="CC1=CCC2CC1C2(C)C (stereo not drawn) [α-Pinene]" target_desc="GmolGOBP1 (Grapholita molesta, UniProt H9XTU5)" qualitative_label=True
compound="N#Cc1ccccc1 [Benzonitrile]" target_desc="GmolGOBP1 (Grapholita molesta, UniProt H9XTU5)" qualitative_label=False
compound="COC(=O)c1ccccc1O [Methyl salicylate]" target_desc="GmolGOBP1 (Grapholita molesta, UniProt H9XTU5)" qualitative_label=False

Query: I wonder whether O=Cc1ccccc1 [Benzaldehyde] has Ki below 30 µM. Can you tell?
Result: False

Query: # repeat for CCCCOC(C)=O [Butyl acetate]
Result: False

----------
Biological target: GmolGOBP1 (Grapholita molesta)
Assay: Fluorescence competitive binding assay with probe 1-NPN, rGmolGOBP1
Conditions: competitive binding with 1-NPN
Readout name: binding to rGmolGOBP1 (in words)

compound="CCC/C=C\\CCCCCCCOC(C)=O [Z8-12:AC, (Z)-8-dodecenyl acetate]" target_desc="GmolGOBP1 (Grapholita molesta)" readout_name="binding to rGmolGOBP1 (in words)" observed_result="did not bind"
compound="CCCCCCCCCCCCO [12:OH, dodecanol]" target_desc="GmolGOBP1 (Grapholita molesta)" readout_name="binding to rGmolGOBP1 (in words)" observed_result="did not bind"

----------
Target: GmolGOBP2 V114A (Grapholita molesta, UniProt H9XTU6, V134A)
Sequence (H9XTU6 entry or part of it V134A): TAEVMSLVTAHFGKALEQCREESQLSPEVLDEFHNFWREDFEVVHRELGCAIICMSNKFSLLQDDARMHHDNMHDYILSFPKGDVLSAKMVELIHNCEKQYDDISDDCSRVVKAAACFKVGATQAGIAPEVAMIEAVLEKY
Test: Fluorescence competitive binding assay, GmolGOBP2 mutant V114A
Details: V114A versus wild-type rGmolGOBP2
Readout name: affinity of V114A mutant versus wild-type (in words)

smiles_record=CCCCCCCCCCO target_desc="GmolGOBP2 V114A (Grapholita molesta, UniProt H9XTU6, V134A)" observed_result="no differences"
smiles_record=CCCCCCCCCCCCCCO target_desc="GmolGOBP2 V114A (Grapholita molesta, UniProt H9XTU6, V134A)" observed_result="no differences"
smiles_record=CCCCCCCCCCCCCCCCO target_desc="GmolGOBP2 V114A (Grapholita molesta, UniProt H9XTU6, V134A)" observed_result="no differences"

----------
Biological target: GmolGOBP2 T9A (Grapholita molesta, UniProt H9XTU6, T29A)
Sequence (H9XTU6 entry or part of it T29A): as the sequence (H9XTU6 entry or part of it V134A) above, with T9A, A114V counted along it
Assay: Fluorescence competitive binding assay, GmolGOBP2 mutant T9A
Entries and their Ki
Give the number; µM is assumed, so skip it.

smiles_record=CCCCCCCCCCO target_desc="GmolGOBP2 T9A (Grapholita molesta, UniProt H9XTU6, T29A)" observed_result=39.6
smiles_record=CCCCCCCCCCCCO target_desc="GmolGOBP2 T9A (Grapholita molesta, UniProt H9XTU6, T29A)" observed_result=6.04

Query: Given the compound CCCCCCCCCCCCCCCCO , what is its reported Ki?
Result: 22.4

----------
Target: rGmolGOBP1 (Grapholita molesta, UniProt H9XTU5)
Sequence (H9XTU5 21-164): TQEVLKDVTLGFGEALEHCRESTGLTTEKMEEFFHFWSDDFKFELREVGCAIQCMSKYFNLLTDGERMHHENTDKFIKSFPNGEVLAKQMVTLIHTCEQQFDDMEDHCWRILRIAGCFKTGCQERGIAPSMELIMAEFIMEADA
Readout name: pKd
Lab note — pKd values are minus log10 of concentrations in M.

Query: Form field: pKd recorded for c1ccc(Nc2cccc3ccccc23)cc1 with rGmolGOBP1 (Grapholita molesta, UniProt H9XTU5) (enter value)
Result: 4.94

----------
Molecular target: GmolGOBP2 (Grapholita molesta, UniProt H9XTU6)
Sequence (H9XTU6 entry or part of it): as the sequence (H9XTU6 entry or part of it V134A) above, with A114V counted along it
Assay: Fluorescence competitive binding assay with probe 1-NPN, rGmolGOBP2 wild-type
Settings: protein and 1-NPN 2 μM, pH 7.4; displacing half of initial fluorescence; read-out: GmolGOBP2 IC50
Procedure: Fluorescence binding assays were performed on a Hitachi (Tokyo, Japan) F-4500 fluorescence spectrophotometer with a 1 cm light path fluorimeter quartz cuvette. Both of the slit widths for excitation and emission were 10 nm. […] The probes were excited at 337 nm and emission spectra were recorded between 370 and 550 nm. […] Dissociation constants of the complex GmolGOBPs/1-NPN (K1-NPN) were calculated by a nonlinear regression binding curve, using Prism 5.0 (GraphPad Software Inc.).
Entries and their IC50
Give the number; µM is assumed, so skip it.

Examples with answers:
molecule=C=C/C(C)=C/CCC(=C)C value_units=µM observed_result=53.4
molecule="CCCCCCOC(C)=O [Hexyl acetate]" value_units=µM observed_result=98.8

Query: Given the molecule CCCCCCCC=O , what is its reported IC50?
Result: 80.4

----------
Molecular target: GmolGOBP1 (Grapholita molesta, UniProt H9XTU5)
Experiment: Fluorescence competitive binding assay with probe 1-NPN, rGmolGOBP1
Settings: protein and 1-NPN 2 μM, pH 7.4; calculated from IC50; read-out: GmolGOBP1 Ki
Readout name: log10(Ki) (log10 of the value in µM)
Remember, log10 of Ki, in µM.

Examples with answers:
compound="CCC/C=C\\CCCCCCCO [Z8-12:OH, (Z)-8-dodecenyl alcohol]" observed_result=0.50
compound="CCCCCCC=O [Heptanal]" observed_result=1.53
compound="CCCCCCCCC=O [Nonanal]" observed_result=1.74
compound="CC(C)CCO [3-Methyl-1-butanol]" observed_result=1.03
compound="CCCCCCCCCC=O [Decanal]" observed_result=1.20
compound="CCCCCCCC=O [Octanal]" observed_result=1.33
compound="CC/C=C\\CC1C(=O)CCC1CC(=O)OC (stereo not drawn) [Methyl jasmonate]" observed_result=1.55
compound="CCCCCC(=O)OCC [Ethyl hexanoate]" observed_result=1.54

Query: Given the compound CCCCCCOC(C)=O [Hexyl acetate] , what is its reported log10(Ki)?
Result: 1.44

Query: # repeat for CCCCCCCCCC [Decane]
Result: 0.72

Query: # repeat for CC/C=C\CCOC(C)=O [Cis-3-Hexenyl acetate]
Result: 1.35

Query: # repeat for CCCCCCO [1-Hexanol]
Result: 1.29

Query: # repeat for CCCCOC(=O)CCC [Butyl butyrate]
Result: 1.52

Query: # repeat for CCCCCCCCCCCCCCC [Pentadecane]
Result: 1.06

Query: # repeat for CCCCCC(=O)OCCCC [Butyl hexanoate]
Result: 1.25
